All values here come from the NIST ThermoML archive (doi:10.1016/j.tca.2013.03.025).

The reader will find reported viscosity values listed item by item below.
settings: 323.15 K; 101 kPa; Liquid; Concentric cylinders viscometry
Write down the numeric answer in mPa·s and omit the unit.

Some solved entries appear below for comparison.
COMPOUND	viscosity, mPa·s
CCCO	1.124
CC(O)CO (centres undefined)	12.64
OCCCO	14.97

From here, focus on the item given below.
Enquiry: Using the record for CCCCOC(=O)C(C)O (centres undefined) [butyl 2-hydroxypropanoate] , report its viscosity.
Return: 1.728

* * *

details: 293.15 K; 101 kPa; Liquid; Concentric cylinders viscometry
PROPERTY LABEL: viscosity (mPa·s)
Value expressed in mPa·s; do not type the unit.

Solved cases below.
COMPOUND	TEST VALUE
CCCCOC(=O)C(C)O (centres undefined) [butyl 2-hydroxypropanoate]	3.88
CCCO	2.208
CC(O)CO (centres undefined)	59.62

Read the next record carefully.
Enquiry: I'd like to know its viscosity. The compound in question is OCCCO
Return: 52.02

* * *

settings: 298.15 K; 101 kPa; Liquid; Concentric cylinders viscometry
Numbers after ± are expanded uncertainties.
Listing of entries alongside the reported viscosity.

Past entries and their recorded results:
COMPOUND	viscosity
OCCCO [propan-1,3-diol]	41.11 ± 0.41 mPa·s
CCCO [propan-1-ol]	1.95 ± 0.019 mPa·s
CC(O)CO (centres undefined) [1,2-propanediol]	44.03 ± 0.39 mPa·s

Kindly consider the entry below.
Enquiry: Item under review: CCCCOC(=O)C(C)O (centres undefined) [butyl 2-hydroxypropanoate] . Reported viscosity?
Return: 3.307 ± 0.058 mPa·s

* * *

details: 318.15 K; 101 kPa; Liquid; Concentric cylinders viscometry
Below, each entry is listed alongside its reported viscosity.
# value in mPa·s; strip the unit string

COMPOUND	viscosity (mPa·s)
CCCCOC(=O)C(C)O (centres undefined) [butyl 2-hydroxypropanoate]	1.935
CC(O)CO (centres undefined)	15.73
OCCCO	17.97

For the next question, use this compound.
Enquiry: Name the reported viscosity value associated with the compound CCCO
Return: 1.236

* * *

Recorded mass density by entry
conditions: 298.15 K; 101 kPa; Liquid; Vibrating tube method
± gives the expanded uncertainty stated by the source.
Form field: result (number plus unit)

Sample answers from the record:
COMPOUND	TEST VALUE
CCCO [propan-1-ol]	799.755 ± 0.14 kg/m3
CCCCOC(=O)C(C)O (centres undefined) [butyl 2-hydroxypropanoate]	977.448 ± 1.8 kg/m3
CC(O)CO (centres undefined) [1,2-propanediol]	1032.56 ± 0.097 kg/m3

Pending compound:
Enquiry: // returns reported mass density for input OCCCO [propan-1,3-diol]
Return: 1049.75 ± 0.27 kg/m3

* * *

assay: refractive index (Na D-line) (dimensionless); details: 323.15 K; 101.33 kPa; Liquid; Standard Abbe refractometry
Listing of recorded refractive index by entry.
Lab note: write the figure by itself, no unit.

These recorded examples may help you get a feel for the data.
MOLECULE	TEST VALUE
CCCCOC(=O)C(C)O (centres undefined) [butyl 2-hydroxypropanoate]	1.40778
OCCCO	1.43087
CCCO	1.37262

Consider now this further molecule.
Enquiry: Value lookup for refractive index; key = CC(O)CO (centres undefined)
Return: 1.42246

* * *

settings: 288.15 K; 101 kPa; Liquid; Concentric cylinders viscometry
Each entry below lists one item and its recorded viscosity value.
# output: bare number, implied unit mPa·s

Solved cases (3 shown):
MOLECULE	viscosity (mPa·s)
CC(O)CO (centres undefined)	82.54
CCCO	2.514
OCCCO	66.71

Next up:
Enquiry: Which viscosity is reported for this molecule? CCCCOC(=O)C(C)O (centres undefined) [butyl 2-hydroxypropanoate]
Return: 4.628
